- assayed.system: canine FcRn (FcRn large subunit with canine beta-2-microglobulin) (canine)
- method.notes: SPR pH 5.9, IgG coupled to C1 chip, 1:1 kinetic fit
Exercise: for every item that follows, state its recorded pKd.
Give bare numbers, as −log10 of the molar value.

These recorded examples may help you get a feel for the data.
[[record]]
binder = "anti-NGF canine IgGB antibody, Fc variant A426Y + D312P (antibody, part only; not given: anti-NGF variable domains and light chain, not shown: another chain or arm of the molecule; small tags and cut ends) Fc: APEMLGGPSVFIFPPKPKDTLLIARTPEVTCVVVDLDPEDPEVQISWFVDGKQMQTAKTQPREEQFNGTYRVVSVLPIGHQPWLKGKQFTCKVNNKALPSPIERTISKARGQAHQPSVYVLPPSREELSKNTVSLTCLIKDFFPPDIDVEWQSNGQQEPESKYRTTPPQLDEDGSYFLYSKLSVDKSRWQRGDTFICYVMHEALHNHYTQESLSHSPGK"
quantity_name = "pKd"
quantitative_readout = 7.35

[[record]]
binder = "anti-NGF canine IgGB antibody, Fc variant A426H + D312P (antibody, part only; not given: Anti-NGF variable domains, not shown: another chain or arm of the molecule; small tags and cut ends) Fc: APEMLGGPSVFIFPPKPKDTLLIARTPEVTCVVVDLDPEDPEVQISWFVDGKQMQTAKTQPREEQFNGTYRVVSVLPIGHQPWLKGKQFTCKVNNKALPSPIERTISKARGQAHQPSVYVLPPSREELSKNTVSLTCLIKDFFPPDIDVEWQSNGQQEPESKYRTTPPQLDEDGSYFLYSKLSVDKSRWQRGDTFICHVMHEALHNHYTQESLSHSPGK"
quantity_name = "pKd"
quantitative_readout = 7.39

[[record]]
binder = "anti-NGF canine IgGB antibody, Fc variant A426H + T286L (antibody, part only; not given: Anti-NGF variable domains, not shown: another chain or arm of the molecule; small tags and cut ends) Fc: APEMLGGPSVFIFPPKPKDTLLIARTPEVTCVVVDLDPEDPEVQISWFVDGKQMQLAKTQPREEQFNGTYRVVSVLPIGHQDWLKGKQFTCKVNNKALPSPIERTISKARGQAHQPSVYVLPPSREELSKNTVSLTCLIKDFFPPDIDVEWQSNGQQEPESKYRTTPPQLDEDGSYFLYSKLSVDKSRWQRGDTFICHVMHEALHNHYTQESLSHSPGK"
quantity_name = "pKd"
quantitative_readout = 7.45


Let us examine a further case.
Given the binder anti-NGF canine IgGB antibody, Fc variant A426Y (antibody, part only; not given: Anti-NGF variable domains, not shown: another chain or arm of the molecule; small tags and cut ends) Fc: APEMLGGPSVFIFPPKPKDTLLIARTPEVTCVVVDLDPEDPEVQISWFVDGKQMQTAKTQPREEQFNGTYRVVSVLPIGHQDWLKGKQFTCKVNNKALPSPIERTISKARGQAHQPSVYVLPPSREELSKNTVSLTCLIKDFFPPDIDVEWQSNGQQEPESKYRTTPPQLDEDGSYFLYSKLSVDKSRWQRGDTFICYVMHEALHNHYTQESLSHSPGK , what is its reported pKd?
6.89
